Subject of test: zPaqr5b (zebrafish Paqr5b) (Danio rerio, UniProt Q6DC77)
Construct: full-length CDS in pPICZalphaC; alpha-factor pre-pro signal N-terminal (major purified band 55 kDa keeps it, 45 kDa band Kex2-cut), C-terminal c-Myc and 6xHis kept; Pichia pastoris X-33; DDM-solubilized, purified by Ni-NTA and Sephacryl S-300
Protocol text: competition with [3H]-progesterone, filter binding
pIC50: −log10 of the molar value.
Quantity kind: pIC50

INSERT INTO assay_data (smiles_text, subject_of_test, quantity_kind, recorded_number) VALUES
  ('CC(=O)[C@H]1CC[C@H]2[C@@H]3CC[C@H]4C[C@H](O)CC[C@]4(C)[C@H]3CC[C@]12C', 'zPaqr5b (zebrafish Paqr5b) (Danio rerio, UniProt Q6DC77)', 'pIC50', 7.60);

---

Subject of test: zPaqr5b (zebrafish Paqr5b) (Danio rerio, UniProt Q6DC77)
Sequence (Q6DC77 1-347): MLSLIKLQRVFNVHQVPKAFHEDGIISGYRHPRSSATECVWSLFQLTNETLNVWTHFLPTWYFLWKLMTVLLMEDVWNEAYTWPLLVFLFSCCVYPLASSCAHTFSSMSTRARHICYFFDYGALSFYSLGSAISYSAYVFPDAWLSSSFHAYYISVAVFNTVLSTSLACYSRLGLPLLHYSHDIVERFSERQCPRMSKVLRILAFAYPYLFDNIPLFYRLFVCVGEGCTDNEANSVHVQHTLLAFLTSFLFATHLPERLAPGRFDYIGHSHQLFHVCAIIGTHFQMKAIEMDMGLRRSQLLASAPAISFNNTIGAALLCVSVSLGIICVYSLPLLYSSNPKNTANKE
Quantity kind: Kd (nM)

INSERT INTO assay_data (smiles_text, subject_of_test, value_unit, recorded_number) VALUES
  ('CC(=O)[C@H]1CC[C@H]2[C@@H]3CCC4=CC(=O)CC[C@]4(C)[C@H]3CC[C@]12C', 'zPaqr5b (zebrafish Paqr5b) (Danio rerio, UniProt Q6DC77)', 'nM', 4.6);

---

Subject of test: zPaqr5b (zebrafish Paqr5b) (Danio rerio)
Construct: full-length CDS in pPICZalphaC; alpha-factor pre-pro signal N-terminal (major purified band 55 kDa keeps it, 45 kDa band Kex2-cut), C-terminal c-Myc and 6xHis kept; Pichia pastoris X-33; DDM-solubilized, purified by Ni-NTA and Sephacryl S-300
Protocol text: competition with [3H]-progesterone, filter binding
Test parameters: read-out: IC50
Text: competition with [3H]-progesterone, filter binding on zPaqr5b (zebrafish Paqr5b)
pIC50: −log10 of the molar value.
Listing of recorded pIC50 by entry.
Quantity kind: pIC50

INSERT INTO measurements (compound, quantity_kind, recorded_number) VALUES
  ('CC(=O)[C@H]1CC[C@H]2[C@@H]3CCC4=CC(=O)CC[C@]4(C)[C@H]3CC[C@]12C', 'pIC50', 8.27),
  ('CC(=O)[C@H]1CC[C@H]2[C@@H]3CC=C4C[C@@H](O)CC[C@]4(C)[C@H]3CC[C@]12C', 'pIC50', 7.42),
  ('C[C@@H](O)[C@@]1(O)CC[C@H]2[C@@H]3CCC4=CC(=O)CC[C@]4(C)[C@H]3CC[C@@]21C [DHP, 17α,20β-dihydroxy-4-pregnen-3-one]', 'pIC50', 7.72);
